Exercise: state measured cytotoxicity at 70.5 h for each of the molecules provided.
measurementNotes: Human HepG2 cell viability assay in 384 well format
Assay type: toxicity, cell-based
Set-up: dose 125 nL, time 70.5 hour; concentration not given beside the values
experimentalContext: HepG2 cells, read-out: Inhibition
API: value field is a number in %; no unit string.

Task: Would you mind telling me what cytotoxicity at 70.5 h value was observed for N#Cc1ccc(CSCCN2CCOCC2)cc1 ?
Output: -5.15

Task: And then CCS(=O)(=O)N1C[C@H](c2nc(C)no2)C[C@H]2OCC[C@H]21 , what is it?
Output: 5.21

Task: And then CCN(Cc1cnn(C)c1)S(=O)(=O)c1ccc(NC(C)=O)cc1 , what is it?
Output: 9.84

Task: And then Cc1ccc(CNC(c2ccc(F)cc2)c2nccn2C)o1 (centres undefined) , what is it?
Output: -7.32

Task: And then CC(=O)N1C[C@@H]2C(=O)N(C)C3(CCN(C(=O)C(C)C)CC3)[C@@H]2C1 , what is it?
Output: -7.63

Task: And then COc1ccc(CNC(=O)Nc2ccc(=O)n(C)c2)cc1 , what is it?
Output: -3.5

Task: And then CNC(=O)COc1c(F)cc(Br)cc1C(C)=O , what is it?
Output: -5.63

Task: And then Cc1noc(C)c1CCCNC(=O)C1CCN(C(=O)C2CC2)CC1 , what is it?
Output: 24.8

Task: And then O=C(CN1CCCC(c2ccn[nH]2)C1)Nc1nc2c(s1)CCC2 (centres undefined) , what is it?
Output: -2.76

Task: And then CS(=O)(=O)N[C@@H]1CCN(Cc2cccnc2)[C@H]1Cc1cccnc1 , what is it?
Output: 13.6

Task: And then Cc1ccsc1CN(c1nc(CCN)nc2ccccc12)C1CC1 , what is it?
Output: 10.4

Task: And then O=C1COC2(CCN(C(=O)c3ccoc3)CC2)CN1Cc1cccnc1 , what is it?
Output: -6.92

Task: And then Cc1noc(C)c1CN1C[C@@H]2CC(F)(F)C[C@@H]2C1 , what is it?
Output: -2.12

Task: And then CCCS(=O)(=O)N1CC[C@@H]2[C@@H]1CC(=O)N2Cc1csc(C)n1 , what is it?
Output: -4.88

----------
measurementNotes: Human HepG2 cell viability assay in 384 well format
Format: toxicity, cell-based
Design: dose 125 nL, time 70.5 hour; concentration not given beside the values
experimentalContext: HepG2 cells, read-out: Inhibition
parameterMeasured: cytotoxicity at 70.5 h (%)
API: value field is a number in %; no unit string.

Task: Would you mind telling me what cytotoxicity at 70.5 h value was observed for CC(C)OCCCNC(=O)NC(C)c1ccc(-n2cncn2)cc1 (centres undefined) ?
Output: 0.395

Task: And then Cc1oc(CN(C)C(=O)c2ccc(Br)cc2)cc1C(=O)O , what is it?
Output: -8.74

Task: And then COc1ncccc1CN1C[C@@H]2C[C@@H](C(=O)NCC3CC3)N(C)[C@@H]2C1 , what is it?
Output: -12.2

Task: And then Cc1nc(C)n(CC2CCCCN2c2ccnc(-c3ccccc3)n2)n1 (centres undefined) , what is it?
Output: 5.38

Task: And then O=C1CO[C@H]2CN(C3CCOCC3)C[C@H]2N1Cc1ccccn1 , what is it?
Output: 1.72

Task: And then Cn1nc(CNC(=O)CN2C(=O)CCC2=O)cc1C1CC1 , what is it?
Output: 1.45

Task: And then COC(=O)C1CN(CC(=O)Nc2cc(F)ccc2F)c2ccccc21 (centres undefined) , what is it?
Output: -7.21

Task: And then Cn1cc(C(=O)NC2CCN(C(=O)NCC3CCSCC3)CC2)cn1 , what is it?
Output: -3.27

Task: And then CCCN(CCC)c1nc(N)nc(-c2cc(Cl)ccc2OC)n1 , what is it?
Output: -2.85

----------
measurementNotes: Human HepG2 cell viability assay in 384 well format
Format: toxicity, cell-based
Parameters: dose 125 nL, time 70.5 hour; concentration not given beside the values
experimentalContext: HepG2 cells, read-out: Inhibition
parameterMeasured: cytotoxicity at 70.5 h (%)
API: value field is a number in %; no unit string.

Task: Would you mind telling me what cytotoxicity at 70.5 h value was observed for CCc1nn(C)c2[nH]nc(NC(=O)c3cccnc3OC)c12 ?
Output: -112

Task: And then CC(=O)N1CC[C@@H]2CN(Cc3ccncc3)S(=O)(=O)[C@@H]2CC1 , what is it?
Output: 0.262

Task: And then CS(=O)(=O)NCCC1CCCN(Cc2ccccc2F)C1 (stereo unspecified) , what is it?
Output: -7.9

Task: And then CSc1ccc(CCNC(=O)Cc2c(C)n[nH]c2C)cc1 , what is it?
Output: -7.74

Task: And then CCN(CC1CCCO1)C(=O)Nc1cc(C(=O)OC)ccc1F (stereo unspecified) , what is it?
Output: -22.1

Task: And then CC(C)n1cnnc1CN(C)C(=O)C1CCCN(C2CCN(C)CC2)C1 (stereo unspecified) , what is it?
Output: -3.47

----------
measurementNotes: Human HepG2 cell viability assay in 384 well format
Assay type: toxicity, cell-based
Set-up: dose 125 nL, time 70.5 hour; concentration not given beside the values
experimentalContext: HepG2 cells, read-out: Inhibition
parameterMeasured: cytotoxicity at 70.5 h (%)
API: value field is a number in %; no unit string.

Task: Would you mind telling me what cytotoxicity at 70.5 h value was observed for Cn1nc(CNC(=O)NCc2ccc(Cl)cc2)c2c1CCOC2 ?
Output: -0.247

Task: And then Cc1ccc(CNC(=O)c2ccc(F)cc2)o1 , what is it?
Output: -8.9

Task: And then Cc1ccn(-c2ccccc2NCc2cscn2)n1 , what is it?
Output: 10.6

Task: And then CCN(CC)c1ccc(CNC(=O)c2cnc(C)cn2)cn1 , what is it?
Output: -4.04

Task: And then Cc1cc(C(=O)N[C@H](C)c2onc(C)c2C(=O)O)c(C)o1 , what is it?
Output: -4.02

Task: And then CC(=O)N1CCN(C(=O)c2cccc(OCc3cscn3)c2)CC1 , what is it?
Output: 0.43

Task: And then COC(=O)c1ccc(C(=O)NCC2(O)CCOCC2)cc1 , what is it?
Output: 33.7

Task: And then COCC1CC2(CCN(c3cccc(C)n3)CC2)CN1C(C)C (stereo unspecified) , what is it?
Output: -8.05

Task: And then CCC(c1ccccc1)N1CCN(C(=O)c2cc(C(N)=O)c[nH]2)CC1 (stereo unspecified) , what is it?
Output: -4.98

Task: And then COc1cccc2c1OCC(CNc1cc(N)nc(SC)n1)C2 (stereo unspecified) , what is it?
Output: -8.3

Task: And then N#CCc1ccc(NC(=O)N[C@H](CO)Cc2ccc(O)cc2)cc1 , what is it?
Output: -9.07

Task: And then O=C(c1cnc(Nc2ccccc2)nc1)N1CCCC2(CCNC2)C1 (stereo unspecified) , what is it?
Output: -8.38

Task: And then CCC(C(=O)NC1(COC)CCCC1)n1cccn1 (stereo unspecified) , what is it?
Output: 5.08

Task: And then CN(C)C(=O)N1CCN(C(=O)Nc2nc(-c3ccccc3)ns2)CC1 , what is it?
Output: -5.92

Task: And then Cc1cccn2cc(CN3CCCC(O)C3)nc12 (stereo unspecified) , what is it?
Output: -2.97

Task: And then c1ccc(Oc2cc(CNCC3CNc4ccnn4C3)ccn2)cc1 (stereo unspecified) , what is it?
Output: -2.96

Task: And then O=C(NCC1(N2CCOCC2)CCSC1)Nc1cn[nH]c1 (stereo unspecified) , what is it?
Output: -10.2

Task: And then CCN1CCN(C(=O)c2cnn(-c3ccccc3Cl)c2)CC1 , what is it?
Output: -8.2

Task: And then CCCOCC1CCN(C(=O)c2cnc(-c3csc(C)n3)nc2O)C1 (stereo unspecified) , what is it?
Output: -8.59

Task: And then CCN1C(=O)CC[C@]12CC[C@@H](NC(=O)c1cnccn1)CC2 , what is it?
Output: 12.9

Task: And then CCN(Cc1cccc(C)c1)Cn1nc(C)c2c(C)onc2c1=O , what is it?
Output: -10.8

Task: And then CC(C)n1ccnc1C1CCN(Cc2ccc(Cl)c(F)c2)CC1 , what is it?
Output: -5.05

Task: And then COCCNC(=O)C1CN(Cc2csc(C)n2)Cc2ccnn2C1 (stereo unspecified) , what is it?
Output: -8.82

Task: And then Cc1nccc(-c2cccc(NCC(=O)N3CCc4sccc4C3)c2)n1 , what is it?
Output: 2.9

Task: And then Cc1ccc(N2CCCc3sc(C(=O)NCCC#N)nc32)nn1 , what is it?
Output: -4.91

Task: And then COc1cccc(OCC2CCCN(C(=O)c3cc(C)n[nH]3)C2)c1 (stereo unspecified) , what is it?
Output: 4.2

Entry source: ChEMBL document CHEMBL3507680
